Test system: OVCAR-8 ovarian
protocol: NCI-60 one-dose screen, 48 h (100 = growth as untreated, 0 = no growth, -100 = all killed)
condition description: 10 µM unless noted
This is part of a sample that, as a whole, favours compounds with a hit. Of some 83,000 tested, about 20% had one in any assay.
# strict inequality: growth < 70% yields Criterion met, everything else yields Criterion not met

- molecule: "Oc1ccc(CSc2nnc(-c3ccc(Cl)cc3)o2)c2cccnc12"
  measurement target: "OVCAR-8 ovarian"
  class: "Criterion met"
- molecule: "O=c1[nH]c(CNc2ccc(NCc3c(-c4ccccc4)no[n+]3[O-])cc2)nc2c1cnn2-c1ccccc1"
  measurement target: "OVCAR-8 ovarian"
  class: "Criterion not met"
- molecule: "Cc1ccc(Nc2ncnc3c2c(C)nn3-c2ccc([N+](=O)[O-])cc2)cc1"
  measurement target: "OVCAR-8 ovarian"
  class: "Criterion not met"
- molecule: "CCOc1ccc2nc(NC(=O)Nc3ccccc3C)sc2c1"
  measurement target: "OVCAR-8 ovarian"
  class: "Criterion not met"
- molecule: "O=C1[C@H]2Cc3c([nH]c4ccccc34)[C@@H](c3c(Cl)cccc3Cl)N2C(=O)CN1C1CCN(Cc2ccccc2)CC1"
  measurement target: "OVCAR-8 ovarian"
  class: "Criterion not met"
- molecule: "CCN1C(=O)N(CC)C2SC(N/N=C/c3cccs3)=NC21 (stereo not given)"
  measurement target: "OVCAR-8 ovarian"
  class: "Criterion met"
- molecule: "N#C/C(=C\\c1ccc(Cl)cc1Cl)C(N)=O"
  measurement target: "OVCAR-8 ovarian"
  class: "Criterion not met"
- molecule: "COc1cc(NC2=C(Cl)C(=O)c3nc(C)ccc3C2=O)cc(OC)c1"
  measurement target: "OVCAR-8 ovarian"
  class: "Criterion met"
- molecule: "Cc1[nH]nc2ccc(-c3nc4cnc(N5CCN(C)CC5)cn4c3Nc3ccc(F)cc3Br)cc12"
  measurement target: "OVCAR-8 ovarian"
  class: "Criterion met"
- molecule: "O=C(O)c1ccc(-n2cc(CNc3ccc(Cl)cc3)c(-c3ccc(F)cc3)n2)cc1"
  measurement target: "OVCAR-8 ovarian"
  class: "Criterion not met"
